- Tested on: HepG2
- PROTOCOL_SUMMARY: Antiproliferative activity against human HepG2 cells assessed as inhibition of cell growth incubated for 72 hrs by MTT assay
- Format: functional, cell-based
- CONDITION_CONTEXT: HepG2, 72 h
pIC50: −log10 of the molar value.
Catalogue of pIC50 values
MEASURED_ATTRIBUTE: pIC50

INSERT INTO results (smiles_code, modifier_sign, measured_result) VALUES
  ('COc1ccc(/C=C/C(=O)NCCC(=O)N2CCN(c3ccc(Nc4ncc5c(C)c(C(C)=O)c(=O)n(C6CCCC6)c5n4)nc3)CC2)cc1OC', '=', 5.00),
  ('CC(=O)c1c(C)c2cnc(Nc3ccc(N4CCN(C(=O)/C=C/C5CC5)CC4)cn3)nc2n(C2CCCC2)c1=O', '<', 4.70),
  ('C=CC(=O)N1CCN(c2ccc(Nc3ncc4c(C)c(C(C)=O)c(=O)n(C5CCCC5)c4n3)nc2)CC1', '=', 5.02),
  ('CC(=O)c1c(C)c2cnc(Nc3ccc(N4CCN(C(=O)/C(C#N)=C/c5ccccc5)CC4)cn3)nc2n(C2CCCC2)c1=O', '=', 5.04);

====

Catalogue of Activity values
- Test system: MDA-MB-231
- PROTOCOL_SUMMARY: Induction of apoptosis in human MDA-MB-231 cells assessed as necrotic cells at 10 uM incubated for 24 hrs by annexin V-FITC/propidium iodide staining based flow cytometry analysis (reference value: 0.034%)
- Type: functional
MEASURED_ATTRIBUTE: Activity (%)

INSERT INTO assay_data (smiles_code, measured_result) VALUES
  ('CC(=O)c1c(C)c2cnc(Nc3ccc(N4CCN(C(=O)/C(C#N)=C/c5ccccc5)CC4)cn3)nc2n(C2CCCC2)c1=O', 0.425),
  ('CC(=O)c1c(C)c2cnc(Nc3ccc(N4CCNCC4)cn3)nc2n(C2CCCC2)c1=O', 1.47),
  ('C=CC(=O)N1CCN(c2ccc(Nc3ncc4c(C)c(C(C)=O)c(=O)n(C5CCCC5)c4n3)nc2)CC1', 0.689),
  ('CC(=O)c1c(C)c2cnc(Nc3ccc(N4CCN(C(=O)/C=C/C(F)(F)F)CC4)cn3)nc2n(C2CCCC2)c1=O', 0.445);

====

Catalogue of pIC50 values
- Tested on: MCF7
- PROTOCOL_SUMMARY: Antiproliferative activity against palbociclib-resistant human MCF7 cells assessed as inhibition of cell growth incubated for 72 hrs by MTT assay
- Assay type: functional, cell-based
- CONDITION_CONTEXT: MCF7, 72 h
pIC50: −log10 of the molar value.
MEASURED_ATTRIBUTE: pIC50

INSERT INTO assay_data (molecule, measured_attribute, measured_result) VALUES
  ('CC(=O)c1c(C)c2cnc(Nc3ccc(N4CCN(C(=O)/C=C/C(F)(F)F)CC4)cn3)nc2n(C2CCCC2)c1=O', 'pIC50', 6.28),
  ('CC(=O)c1c(C)c2cnc(Nc3ccc(N4CCNCC4)cn3)nc2n(C2CCCC2)c1=O [PALBOCICLIB]', 'pIC50', 5.24);

====

- Test system: HepG2
- PROTOCOL_SUMMARY: Antiproliferative activity against human HepG2 cells assessed as inhibition of cell growth incubated for 72 hrs by MTT assay
- Assay type: functional, cell-based
- CONDITION_CONTEXT: HepG2, 72 h
pIC50: −log10 of the molar value.
MEASURED_ATTRIBUTE: pIC50

INSERT INTO results (smiles_code, measured_attribute, modifier_sign, measured_result) VALUES
  ('C/C=C/C(=O)N1CCN(c2ccc(Nc3ncc4c(C)c(C(C)=O)c(=O)n(C5CCCC5)c4n3)nc2)CC1', 'pIC50', '<', 4.70),
  ('COc1cc(/C=C/C(=O)NCC(=O)N2CCN(c3ccc(Nc4ncc5c(C)c(C(C)=O)c(=O)n(C6CCCC6)c5n4)nc3)CC2)ccc1O', 'pIC50', '=', 4.98),
  ('COc1ccc(/C=C/C(=O)N2CCN(c3ccc(Nc4ncc5c(C)c(C(C)=O)c(=O)n(C6CCCC6)c5n4)nc3)CC2)cc1OC', 'pIC50', '<', 4.70),
  ('CC(=O)c1c(C)c2cnc(Nc3ccc(N4CCN(C(=O)/C=C/C(F)(F)F)CC4)cn3)nc2n(C2CCCC2)c1=O', 'pIC50', '=', 5.29),
  ('COc1ccc(/C=C/C(=O)NCC(=O)N2CCN(c3ccc(Nc4ncc5c(C)c(C(C)=O)c(=O)n(C6CCCC6)c5n4)nc3)CC2)cc1OC', 'pIC50', '=', 4.93),
  ('COC(=O)/C=C/CN1CCN(c2ccc(Nc3ncc4c(C)c(C(C)=O)c(=O)n(C5CCCC5)c4n3)nc2)CC1', 'pIC50', '<', 4.70),
  ('COc1ccc(/C=C/C(=O)NCCCC(=O)N2CCN(c3ccc(Nc4ncc5c(C)c(C(C)=O)c(=O)n(C6CCCC6)c5n4)nc3)CC2)cc1O', 'pIC50', '<', 4.70);

====

- Test system: MDA-MB-231
- PROTOCOL_SUMMARY: Induction of apoptosis in human MDA-MB-231 cells assessed as apoptosis rate at 10 uM incubated for 24 hrs by annexin V-FITC/propidium iodide staining based flow cytometry analysis
- Type: functional
MEASURED_ATTRIBUTE: Activity (%)

INSERT INTO measurements (molecule, readout_unit, measured_result) VALUES
  ('CC(=O)c1c(C)c2cnc(Nc3ccc(N4CCN(C(=O)/C(C#N)=C/c5ccccc5)CC4)cn3)nc2n(C2CCCC2)c1=O', '%', 63.1),
  ('C=CC(=O)N1CCN(c2ccc(Nc3ncc4c(C)c(C(C)=O)c(=O)n(C5CCCC5)c4n3)nc2)CC1', '%', 55.5),
  ('CC(=O)c1c(C)c2cnc(Nc3ccc(N4CCNCC4)cn3)nc2n(C2CCCC2)c1=O [PALBOCICLIB]', '%', 73.7),
  ('CC(=O)c1c(C)c2cnc(Nc3ccc(N4CCN(C(=O)/C=C/C(F)(F)F)CC4)cn3)nc2n(C2CCCC2)c1=O', '%', 79);

====

Catalogue of IC50 values
- ASSAY_SYSTEM: Cyclin-dependent kinase 4 (Homo sapiens, UniProt P11802)
- Sequence (P11802 whole entry): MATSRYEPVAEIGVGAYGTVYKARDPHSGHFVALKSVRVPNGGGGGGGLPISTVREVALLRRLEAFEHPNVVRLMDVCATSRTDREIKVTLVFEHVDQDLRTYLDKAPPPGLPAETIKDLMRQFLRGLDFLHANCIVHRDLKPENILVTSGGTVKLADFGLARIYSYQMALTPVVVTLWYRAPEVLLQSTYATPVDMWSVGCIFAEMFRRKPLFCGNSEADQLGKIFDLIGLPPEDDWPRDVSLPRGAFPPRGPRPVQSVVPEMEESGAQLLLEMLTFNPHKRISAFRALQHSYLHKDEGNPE
- PROTOCOL_SUMMARY: Covalent inhibition of CDK4 (unknown origin) using histone H1 as substrate incubated for 10 mins in presence of [gamma-32P]ATP by radioactivity based kinase assay
MEASURED_ATTRIBUTE: IC50

INSERT INTO measurements (smiles_code, measured_result) VALUES
  ('CC(=O)c1c(C)c2cnc(Nc3ccc(N4CCN(C(=O)/C(C#N)=C/c5ccccc5)CC4)cn3)nc2n(C2CCCC2)c1=O', '25 nM'),
  ('CC(=O)c1c(C)c2cnc(Nc3ccc(N4CCN(C(=O)/C=C/C(F)(F)F)CC4)cn3)nc2n(C2CCCC2)c1=O', '18 nM'),
  ('C=CC(=O)N1CCN(c2ccc(Nc3ncc4c(C)c(C(C)=O)c(=O)n(C5CCCC5)c4n3)nc2)CC1', '23 nM');

====

- ASSAY_SYSTEM: Cyclin-dependent kinase 9 (Homo sapiens)
- Sequence (P50750 whole entry): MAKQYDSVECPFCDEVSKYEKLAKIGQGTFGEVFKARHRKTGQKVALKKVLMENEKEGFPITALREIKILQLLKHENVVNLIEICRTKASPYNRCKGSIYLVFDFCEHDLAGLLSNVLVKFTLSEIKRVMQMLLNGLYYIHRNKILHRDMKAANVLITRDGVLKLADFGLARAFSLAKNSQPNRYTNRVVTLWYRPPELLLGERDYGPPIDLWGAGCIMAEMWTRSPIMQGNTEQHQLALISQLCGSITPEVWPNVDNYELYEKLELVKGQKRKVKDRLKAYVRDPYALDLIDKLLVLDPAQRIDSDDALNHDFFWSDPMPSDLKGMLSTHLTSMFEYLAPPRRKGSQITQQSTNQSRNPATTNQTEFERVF
- PROTOCOL_SUMMARY: Covalent inhibition of CDK9 (unknown origin) using histone H1 as substrate incubated for 10 mins in presence of [gamma-32P]ATP by radioactivity based kinase assay
pIC50: −log10 of the molar value.
MEASURED_ATTRIBUTE: pIC50

INSERT INTO measurements (smiles_code, measured_attribute, measured_result) VALUES
  ('CC(=O)c1c(C)c2cnc(Nc3ccc(N4CCN(C(=O)/C=C/C(F)(F)F)CC4)cn3)nc2n(C2CCCC2)c1=O', 'pIC50', '< 6.00'),
  ('C=CC(=O)N1CCN(c2ccc(Nc3ncc4c(C)c(C(C)=O)c(=O)n(C5CCCC5)c4n3)nc2)CC1', 'pIC50', '< 6.00'),
  ('CC(=O)c1c(C)c2cnc(Nc3ccc(N4CCN(C(=O)/C(C#N)=C/c5ccccc5)CC4)cn3)nc2n(C2CCCC2)c1=O', 'pIC50', '< 6.00');

====

- System: MDA-MB-231
- PROTOCOL_SUMMARY: Cell cycle arrest in human MDA-MB-231 cells assessed as accumulation of cells at S phase at 10 uM incubated for 24 hrs by propidium iodide staining based assay (reference value: 25.09%)
- Format: functional
Catalogue of Activity values
MEASURED_ATTRIBUTE: Activity (%)

INSERT INTO assay_data (smiles_code, readout_unit, measured_result) VALUES
  ('CC(=O)c1c(C)c2cnc(Nc3ccc(N4CCNCC4)cn3)nc2n(C2CCCC2)c1=O', '%', 16.99),
  ('CC(=O)c1c(C)c2cnc(Nc3ccc(N4CCN(C(=O)/C(C#N)=C/c5ccccc5)CC4)cn3)nc2n(C2CCCC2)c1=O', '%', 24.58),
  ('CC(=O)c1c(C)c2cnc(Nc3ccc(N4CCN(C(=O)/C=C/C(F)(F)F)CC4)cn3)nc2n(C2CCCC2)c1=O', '%', 21.16),
  ('C=CC(=O)N1CCN(c2ccc(Nc3ncc4c(C)c(C(C)=O)c(=O)n(C5CCCC5)c4n3)nc2)CC1', '%', 26.01);
